Molecular target: IL-17A/A (Homo sapiens, UniProt Q16552)
Construct: purchased Genscript Z03228
Sequence (Q16552 24-155): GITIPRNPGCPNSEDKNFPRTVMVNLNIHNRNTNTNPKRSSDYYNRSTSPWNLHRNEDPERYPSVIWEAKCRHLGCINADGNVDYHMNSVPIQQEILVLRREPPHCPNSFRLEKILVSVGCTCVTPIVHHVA
Test: IL-17A/A HEK-Blue Cell Assay
Format: cell-based
Details: HEK-Blue IL-17A reporter cell line, SEAP readout at A630, 20 hours incubation with IL-17A/A; top concentration 10 uM, 1 uM or 0.3 uM; read-out: IL-17A/A inhibition (pIC50) (converted)
parameter: IC50

// query IC50 value for entry "CCC(=O)N[C@@H](C(=O)N1CCN(C)CC1)[C@@H](C)c1ccc(NC(=O)[C@@H](NC(=O)C(F)(F)c2cncc(OC)c2)[C@H]2CC[C@H](C)CC2)c(F)c1"
10 to 100 nM

====

Target: IL-17A/A (Homo sapiens)
Construct: purchased Genscript Z03228
Test: IL-17A/A HEK-Blue Cell Assay
Format: cell-based
Conditions: HEK-Blue IL-17A reporter cell line, SEAP readout at A630, 20 hours incubation with IL-17A/A; top concentration 10 uM, 1 uM or 0.3 uM; read-out: IL-17A/A inhibition (pIC50) (converted)
parameter: IC50

Take a look at these entries with their results.
CCC(=O)N[C@H](Cc1ccc(NC(=O)[C@@H](NC(=O)c2conc2CC)C2CCC(F)(F)CC2)c(F)c1)C(=O)N1CCN(C)CC1: 100 to 10000 nM
CCC(=O)N[C@H](Cc1ccc(NC(=O)[C@@H](NC(=O)C(F)(F)c2cccnc2)C2CCCCC2)c(F)c1)C(=O)N1CCN(C)CC1: 100 to 10000 nM

Kindly review the next molecule as well.
// query IC50 value for entry "CCc1nonc1C(=O)N[C@H](C(=O)Nc1ccc([C@H](C)[C@@H](NC(=O)N(C)C2CCC2)C(=O)N2CCN(C)CC2)cc1F)[C@H]1CC[C@H](C)CC1"
< 10 nM

====

IC50 reference
Molecular target: IL-17A/A (Homo sapiens)
Construct: purchased Genscript Z03228
Assay: IL-17A/A HEK-Blue Cell Assay
Assay type: cell-based
Details: HEK-Blue IL-17A reporter cell line, SEAP readout at A630, 20 hours incubation with IL-17A/A; top concentration 10 uM, 1 uM or 0.3 uM; read-out: IL-17A/A inhibition (pIC50) (converted)

Take a look at these entries with their results.
CCc1nonc1C(=O)N[C@H](C(=O)Nc1ccc([C@H](C)C(NC(=O)C(F)C2CC2)C(=O)N2CCN(C)[C@H](C)C2)cc1F)[C@H]1CC[C@H](C)CC1 (single isomer, unassigned) [Compound 600]: < 10 nM
CCC(=O)N[C@@H](C(=O)N1CCC(F)(F)CC1)[C@@H](C)c1ccc(NC(=O)[C@@H](NC(=O)c2nonc2CC)[C@H]2CC[C@H](C)CC2)c(F)c1 [Compound 468]: 10 to 100 nM
CCC(=O)N[C@@H](C(=O)N1CCN(C)[C@H](C)C1)[C@@H](C)c1ccc(NC(=O)[C@@H](NC(=O)c2ccnn2CC)[C@H]2CC[C@H](C)CC2)c(F)c1 [Compound 436]: < 10 nM
CCc1nonc1C(=O)N[C@H](C(=O)Nc1ccc([C@H](C)[C@@H](NC(=O)C2(F)CCC2)C(=O)N2CCN(C)[C@H](C)C2)cc1F)[C@H]1CC[C@H](C)CC1 [Compound 505]: 10 to 100 nM

Report IC50 for CCC(=O)N[C@@H](C(=O)N1CCN(C)CC1)[C@@H](C)c1ccc(NC(=O)[C@@H](NC(=O)c2coc3c2COC3)[C@H]2CC[C@H](C)CC2)c(F)c1 [Compound 277] tested on IL-17A/A (Homo sapiens).
< 10 nM

====

Target: IL-17A/A (Homo sapiens, UniProt Q16552)
Construct: purchased Genscript Z03228
Assay: IL-17A/A HEK-Blue Cell Assay
Assay type: cell-based
Details: HEK-Blue IL-17A reporter cell line, SEAP readout at A630, 20 hours incubation with IL-17A/A; top concentration 10 uM, 1 uM or 0.3 uM; read-out: IL-17A/A inhibition (pIC50) (converted)
parameter: IC50

Take a look at these entries with their results.
CCC(=O)N[C@@H](C(=O)N1CCN(C)[C@@H](C)C1)[C@@H](C)c1ccc(NC(=O)[C@@H](NC(=O)c2nonc2CC)[C@H]2CC[C@H](C)CC2)c(F)c1 [Compound 460]: < 10 nM
CCC(=O)N[C@@H](C(=O)N1CCN(C)CC1)[C@@H](C)c1ccc(NC(=O)[C@@H](NC(=O)c2ccnn2CC)[C@H]2CC[C@H](C)CC2)cc1 [Compound 299]: 10 to 100 nM
CCn1nccc1C(=O)N[C@H](C(=O)Nc1ccc([C@H](C)[C@@H](NC(=O)CC2CC2)C(=O)N2CCN(C)CC2)cc1F)C1CCCCCC1 [Compound 340]: < 10 nM
CCC(=O)N[C@@H](C(=O)N1CCN(C)CC1)[C@@H](C)c1ccc(NC(=O)[C@@H](NC(=O)c2occc2CC)[C@H]2CC[C@H](C)CC2)c(F)c1 [Compound 524]: 10 to 100 nM
CCC(=O)N[C@@H](C(=O)N1CCN(C)CC1)[C@@H](C)c1ccc(NC(=O)C(NC(=O)C(F)(F)c2cnc(OC)nc2)C2CCCCCC2)c(F)c1 (some centres unmarked) [Compound 418]: 10 to 100 nM

// query IC50 value for entry CCn1nccc1C(=O)N[C@H](C(=O)Nc1ccc([C@H](C)[C@@H](NC(=O)NC2CC2)C(=O)N2CCN(C)CC2)cc1)C1CCCCC1 [Compound 402]
10 to 100 nM

// query IC50 value for entry CCC(=O)NC(Cc1ccc(NC(=O)[C@@H](NC(=O)c2ccnn2CC)C2CCCCC2)c(F)c1)C(=O)N1CCN(Cc2cccnc2)CC1 (some centres unmarked) [Compound 652]
100 to 10000 nM

// query IC50 value for entry CCn1nccc1C(=O)N[C@H](C(=O)Nc1ccc([C@H](C)[C@@H](NC(=O)c2csnn2)C(=O)N2CCN(C)CC2)cc1F)C1CCCCC1 [Compound 644]
100 to 10000 nM

// query IC50 value for entry CCC(=O)N[C@@H](C(=O)N1CCC(F)(F)CC1)[C@@H](C)c1ccc(NC(=O)[C@@H](NC(=O)c2conc2C(C)(C)N)[C@H]2CC[C@H](C)CC2)c(F)c1 [Compound 534]
10 to 100 nM

// query IC50 value for entry CCC(=O)N[C@@H](C(=O)N1CCN(C)CC1)[C@@H](CC)c1ccc(NC(=O)[C@@H](NC(=O)C(F)(F)c2ccc(OC)nc2)C2CCCCCC2)cc1 [Compound 227]
10 to 100 nM

// query IC50 value for entry CCC(=O)N[C@@H](C(=O)N1CCN(C)CC1)[C@@H](C)c1ccc(NC(=O)C(NC(=O)c2nonc2CC)C2CCc3cc(F)ccc32)c(F)c1 (single isomer, unassigned) [Compound 569]
100 to 10000 nM

====

IC50 reference
Biological target: IL-17A/A (Homo sapiens)
Construct: purchased Genscript Z03228
Assay: IL-17A/A HEK-Blue Cell Assay
Type: cell-based
Details: HEK-Blue IL-17A reporter cell line, SEAP readout at A630, 20 hours incubation with IL-17A/A; top concentration 10 uM, 1 uM or 0.3 uM; read-out: IL-17A/A inhibition (pIC50) (converted)
Experimental: The HEK-Blue IL-17A reporter cell line (Fisher #NC1408637) was used for cell-based IL-17A/A inhibition assays. Cells were grown and prepared for assays according to the manufacturer's instructions. […] Media from the cells is then added to a development reagent (Quanti-Blue Substrate, Fisher #NC9711613), and read at A630. […]

Take a look at these entries with their results.
CCc1nonc1C(=O)N[C@H](C(=O)Nc1ccc([C@H](C)[C@@H](NC(=O)c2cccnc2OC)C(=O)N2CCN(C)CC2)cc1F)[C@H]1CC[C@H](C)CC1: 10 to 100 nM
CCC(=O)N[C@H](Cc1ccc(NC(=O)[C@@H](NC(=O)c2ccnn2CC)C2CCCCC2)c(F)c1)C(=O)N1CCN(C2COC2)CC1: 100 to 10000 nM
CCn1nccc1C(=O)N[C@H](C(=O)Nc1ccc([C@H](C)[C@@H](NC(=O)C2(F)CC2)C(=O)N2CCN(C)CC2)cc1F)C1CCCCCC1: 10 to 100 nM
CCC(=O)N[C@@H](C(=O)N1CCN(C)CC1)[C@@H](C)c1ccc(NC(=O)[C@@H](NC(=O)c2coc3cc(OC)ccc23)C2CCCCC2)c(F)c1: 10 to 100 nM
CCn1nccc1C(=O)N[C@H](C(=O)Nc1ccc([C@H](C)[C@@H](NC(=O)NC)C(=O)N2CCN(C)CC2)cc1F)C1CCCCC1: 100 to 10000 nM

Kindly review the next compound as well.
// query IC50 value for entry "CCC(=O)N[C@@H](C(=O)N1CCN(C)CC1)[C@@H](C)c1ccc(NC(=O)[C@@H](NC(=O)c2ccnn2CC)[C@H](OC)c2ccc(F)cc2)c(F)c1"
100 to 10000 nM
